Source listed as the C3SDB collision cross section collection.

- CONDITION: [M-H]-; instrument: DT; single field, calibrated with Agilent tune mix (Agilent)

COMPOUND	collision cross section (N2) (Å²)
OC[C@@H](O)[C@@H](O)[C@H](O)[C@@H](O)CO	129.64
Cn1c(=O)[nH]c2nc[nH]c2c1=O	124.23
C[C@]12CC[C@@H](O)C[C@@H]1CC[C@@H]1[C@@H]2CC[C@]2(C)C(=O)CC[C@@H]12 [3alpha-Hydroxy-5alpha-androstan-17-one]	176.71
O=C(O)C(O)Cc1c[nH]c2ccccc12 (centres undefined)	146.51

====

- CONDITION: [M+H]+; instrument: DT; stepped-field
The reader will find reported collision cross section (N2) values listed item by item below.
OBSERVABLE: collision cross section (N2) (Å²)

MOLECULE	VALUE_MEASURED
CCCCCCCCCC/C=C\CCCCCCCCCC(=O)O[C@H](COC(=O)CCCCCCCCCCCCCCC)COP(=O)(O)OC[C@H](N)C(=O)O	289.63
CCCCCCCCCCCCCCCCCCCCCC(=O)N[C@@H](CO)[C@H](O)CCCCCCCCCCCCCCC	274.03
CCCCCCCCCCCCCCCCCCCCCCC(=O)N[C@@H](COP(=O)([O-])OCC[N+](C)(C)C)[C@H](O)CCCCCCCCCCCCCCC	302.29
CCCCCCCCCCCCCCCCCCCCCC(=O)N[C@@H](CO[C@@H]1O[C@H](CO)[C@@H](O)C(O)C1O)[C@H](O)CCCCCCCCCCCCCCC (stereo partly specified)	296.24
CCCCCCCC/C=C\CCCCCCCCCC(=O)O[C@H](COCCCCCCCCCCCCCCCC)COP(=O)(O)OCCN	277.08
CCCCC/C=C\C/C=C\CCCCCCCC(=O)O[C@H](COCCCCCCCCCCCCCCCCCC)COP(=O)(O)OCCN	274.98
